Let's look at some compounds and their measured MBC.
Test system: Pseudomonas aeruginosa ATCC 15442
methodSummary: Broth dilution MIC/MBC, reference strain
Type: cell-based
measurementConditions: Pseudomonas aeruginosa, ATCC15442; P. aeruginosa ATCC 15442; read-out: MBC
Quick reminder: number only, in µg/mL, skip the unit.

Study these solved cases before continuing.
# compound, experimentalSystem, readoutLabel, experimentalValue
data = [
    ("Cc1cc(S(=O)(=O)NC(=O)C=Cc2ccccc2)c(SCc2ccc(C(F)(F)F)cc2)cc1Cl [Compound 14]", "Pseudomonas aeruginosa ATCC 15442", "MBC", 128),
    ("Cc1cc(S(=O)(=O)NC(=O)CCC2CCCCC2)c(SCc2ccc3ccccc3c2)cc1Cl [Compound 12]", "Pseudomonas aeruginosa ATCC 15442", "MBC", 128),
]

Here's the next entry for you.
Challenge: Name the reported MBC value associated with the compound Cc1cc(S(=O)(=O)NC(=O)C=Cc2ccccc2)c(SCc2cccc(C(F)(F)F)c2)cc1Cl [Compound 15]
Response given: 128
